experiment: AUC (0 to last) in liver Por deleted-reductase conditional null mouse at 2.5 mg/kg, po treated 10 days after 40 mg/kg, ip 3-methylcholanthrene administration by liquid chromatography-tandem mass spectrometry; format: ADME, organism-based; conditions: in vivo
readout: AUC(0-t) at 240 h (ng·h/mL)
All answers are understood in ng·h/mL, so give the number only.

In plain terms, `Cc1ncc2n1-c1ccc(Cl)cc1C(c1ccccc1F)=NC2` has a documented AUC(0-t) at 240 h of 2100

----------
experiment: Cmax in liver and gut Por deleted-reductase conditional null mouse at 2.5 mg/kg, po treated 10 days after 80 mg/kg, ip beta-naphthoflavone administration by liquid chromatography-tandem mass spectrometry; format: ADME, organism-based; conditions: in vivo
readout: Cmax (ng/mL)
Quick reminder: number only, in ng/mL, skip the unit.

Note to self: Cmax recorded for Cc1ncc2n1-c1ccc(Cl)cc1C(c1ccccc1F)=NC2 [MIDAZOLAM] was 2300

----------
assay: in vivo; settings: mouse, po, 2.5 mg/kg
Description: Terminal half life in Por lox/lox wild type mouse at 2.5 mg/kg, po treated 10 days after 40 mg/kg, ip 3-methylcholanthrene administration by liquid chromatography-tandem mass spectrometry
readout: half-life at 240 h (h)
The reply should be a number in h, with the unit left off.

The measured half-life at 240 h associated with Cc1ncc2n1-c1ccc(Cl)cc1C(c1ccccc1F)=NC2 [MIDAZOLAM] reads 1.13

----------
assay: Clearance in liver Por deleted-reductase conditional null mouse at 2.5 mg/kg, po treated 10 days after 40 mg/kg, ip 3-methylcholanthrene administration by liquid chromatography-tandem mass spectrometry; assay type: ADME, organism-based; conditions: in vivo
readout: CL/F
# do not omit the unit; it follows the number

Entry `Cc1ncc2n1-c1ccc(Cl)cc1C(c1ccccc1F)=NC2` — recorded CL/F = 26.8 mL/min/kg

----------
assay: AUC (0 to last) in Por lox/lox wild type mouse at 2.5 mg/kg, po treated 10 days after 40 mg/kg, ip 3-methylcholanthrene administration by liquid chromatography-tandem mass spectrometry; type: ADME, organism-based; details: plasma
readout: AUC(0-t) at 240 h (ng·h/mL)
Express it in ng·h/mL; write the number only.

Please fill in: AUC(0-t) at 240 h reported for Cc1ncc2n1-c1ccc(Cl)cc1C(c1ccccc1F)=NC2 [MIDAZOLAM] = 125

----------
assay: Clearance in liver and gut Por deleted-reductase conditional null mouse at 2.5 mg/kg, po treated 10 days after 80 mg/kg, ip beta-naphthoflavone administration by liquid chromatography-tandem mass spectrometry; type: ADME, organism-based; conditions: in vivo
readout: CL/F
Hi, when you answer, please include the unit after the number. Thanks!

Documented CL/F of `Cc1ncc2n1-c1ccc(Cl)cc1C(c1ccccc1F)=NC2` : 0.558 L/h/kg

----------
test: Cmax in liver Por deleted-reductase conditional null mouse at 2.5 mg/kg, po treated 10 days after 40 mg/kg, ip 3-methylcholanthrene administration by liquid chromatography-tandem mass spectrometry; format: ADME, organism-based; settings: in vivo
readout: Cmax (ng/mL)
Give a bare numeral; the unit ng/mL is implied.

Record `Cc1ncc2n1-c1ccc(Cl)cc1C(c1ccccc1F)=NC2` , field Cmax: 900
